system: MS2 coat protein; assay: apparent Kd, MS2 coat protein; higher = weaker binding; RNA-MaP array; settings: ligand present: flavin mononucleotide; designed as: OFF switch for flavin mononucleotide
Reported endpoint: apparent Kd (nM)

• GAUCCGCUCGAGAAGGUCGUCGGGCACCGAGUCGAAGGAUAUCGAGAAUGAAGACAUGAGGAUCACCCAUGUGAGGAGCGAUCC = 126
• UAACGCCCCUUAGGAUAUCCACGUAACCCCUCCCCCGUAAGUAGAAACAUGAGGAUCACCCAUGUGGAGAAGGAAGUGACCCGC = 18.9
• GUGAGACAUGAGGAUCACCCAUGUUAGGAUAUAAAAGGCAAACGUAAUGGCGAGGUUAAUAGAAGGAACAGAAA = 11.9
• AUCUGGAGAGGAUAUUGAUCGGAACACAUGAGGAUCACCCAUGUGAGCCCUCGUGUCCCUCAAGAAGGCUCGGGCG = 7.71
• GUAUGAGAAGCAUAUACAUGAGGAUCACCCAUGUCCUCAGCGGAGGAUAUGUCUUUCAGGAGUAUACAGAAGGCCGCGGAAUUC = 260
• UCAGAUGUGAAGGAUAUUCCGCGAGCAGCUACGGAAGAAGGUCAAACAUGAGGAUCACCCAUGUGUCUCCCGGG = 22.4
• AUAUAAACGCAGAAGGAUCGUUUCCUUUAAAUGAUAGGAUAUGCCAACCUUGACAUGAGGAUCACCCAUGUGUUACUCUGUUUU = 98.2

###

test system: MS2 coat protein; test: apparent Kd, MS2 coat protein; higher = weaker binding; RNA-MaP array; conditions: ligand present: flavin mononucleotide; designed as: ON switch for flavin mononucleotide
Reported endpoint: apparent Kd (nM)

* CGUUACAUAGAGAAGGUUCAUAAGAUCAAAUAACAUGAGGAUCACCCAUGUAUGUAAGCAUGAGGAAAGGAUAUCUACCGCCAG | 70.1
* GAAUUAGUGUUGGAGGAUAUCCCAUGUCUUACAUGAGGAUCACCCAUGUCCGGACAACGACAAAAGGAGAAGGCCAUCAUCAUGUC | 80.8
* GAUAUACAUGAGGAUCACCCAUGUCCAAAUUAAGUUUUAGUAUAGGAUAUUGACCGCUAGGAUGUCAAGAAGGAUACCCGAGGU | 7.52

###

apparent Kd for assorted sequences
test system: MS2 coat protein; test: apparent Kd, MS2 coat protein; higher = weaker binding; RNA-MaP array; FMN 200 µM where present; conditions: designed as: OFF switch for flavin mononucleotide; no ligand
Reported endpoint: apparent Kd

- UUUGAAUAGGUAGGAUAUACAUACAUUCCUACAUUACUAACAUGAGGAUCACCCAUGUAUACAUUGUAGAAGGACCAGAUUGAU: 26.1 nM
- GGUUGGCGAGGAUAUACAUGAGGAUCACCCAUGUGGUCCUGUGGCUGAUCUUGCCUUUGUAGAAGGCGCGGGUC: 49.4 nM
- ACGCGUUGGGAGAAGGUACAUUAAAUUAGUUACACAUGAGGAUCACCCAUGUAAGGAUAUCCCAUCGUGUAAUAUUAUACAGCA: 9.76 nM
- UUCUUUCCUCAUGUACAUGAGGAACAUGAGGAUCACCCAUGUAGAAGGAUUUCCCUUAAAUUAAAAUAGGAUAUACAUAUAUUU: 27.9 nM
- GCACGGCAUGUAGGAUAUCGAGCUCCGGGAGCUCGAGAAGGACAUGAGGAUCACCCAUGUGCUCACAGUGAGUGAGCGCUGUGC: 23.9 nM
- UGAUGUCGCGAGGAUAUCCAAGAGGACUUUCUGGGAGAAGGUGCGACAUGAGGAUCACCCAUGUCAUAAGGAGU: 109 nM
- ACGCCCUAGUAGAAGGGACAUCGGCUGGUAAGCAUCAUCUCCUUCUCACAUGAGGAUCACCCAUGUCAGGAUAUACUAGGAUGC: 12.2 nM
- UUUAGUUUAGGAUAUGUAGACAUUAACAUGAGGAUCACCCAUGUAGAUCCUGAAUUGACUACAGAAGGAAGCAUUU: 248 nM
- UGGUACAUGAGGAUCACCCAUGUAAGAGCCCUCAUGCGAUGUAGAAGGUUAAUGCGUGUAGUGCUAAAGGAUAUACAUGAGUUU: 82.3 nM
- UUUUUUGUUGUGAGGAUAUCGUUGUUGUUGUGGAUCGAGAAGGCACAUGAGGAUCACCCAUGUUUGUUGUGGUU: 89.1 nM
- CAGCCCUGAGGAUAUCCAUCCUUGUACAUGAGGAUCACCCAUGUUUUCCUCUGGGCUUUCGGAGAAGGCAGGUAUC: 74.4 nM

###

tested on: MS2 coat protein; assay: apparent Kd, MS2 coat protein; higher = weaker binding; RNA-MaP array; FMN 200 µM where present; settings: ligand present: flavin mononucleotide; designed as: OFF switch for flavin mononucleotide
Label rule, in plain words: apparent Kd of 40 nM and up is t, under 40 nM is f.

• ACGCCCUAGUAGAAGGGACAUCGGCUGGUAAGCAUCAUCUCCUUCUCACAUGAGGAUCACCCAUGUCAGGAUAUACUAGGAUGC = f
• ACCAUUUACUAAUUAUCUAUACAUGAGGAUCACCCAUGUUAAGAGGAUAUCAUCGUGAAACACGAUGAGAAGGCUUAGCAUUCG = t
• CUCAUGUGAGGAUAUCAGUAGUAAAAAAAUAAAAUUACUACUGAGAAGGCACAUGAGGAUCACCCAUGUACCUU = t
• GUGACGAAUGUAGGAUAUGCUGAGGAAUACUCAGCAGAAGGACAUGAGGAUCACCCAUGUACUAAUAGUGAUAAUAAACGUCAC = t
• UGAUGUCGCGAGGAUAUCCAAGAGGACUUUCUGGGAGAAGGUGCGACAUGAGGAUCACCCAUGUCAUAAGGAGU = t
• AAAAACAGAGGAUAUACAAAAUGAUGACGAAAGUCAUCAAAACAUGAGGAUCACCCAUGUAGAAGGCUGAAAAA = f
• GCGUCAGAAUUAAUUGUGUCAUACAGAAGGCAAUAUUAAGGUUAAGACAUGAGGAUCACCCAUGUUGAGGAUAUGUAGUGACGC = f
• UCUCGGAGCAGAGGAUAUUACAUGAGGAUCACCCAUGUAUGAACCAAUAGCUGGAAACAGCAAUGUAAGAAGGCUGCUCCGACA = t
• UUCUUUCCUCAUGUACAUGAGGAACAUGAGGAUCACCCAUGUAGAAGGAUUUCAAUUAAAUUAAAAUAGGAUAUACAUCUAUUU = f
• UACGUACAGAAGAACUCCGGAUCUAGAAGGGACAUGAGGAUCACCCAUGUACCGUUGAUUGCUUGUCAGGAUAUAGACCCGGCC = f
• UCAUUUCUGUAAGGAUAUAUAAACAUGACGAUACAUGAGGAUCACCCAUGUAUAGAAGGUACAAAUACAUAUAAUGCAAUGUUC = f
• GGUACUCAAAGAGUACCAAUACGAACAUGAGGAUCACCCAUGUAGGAUAUGCUACUCAAAGAGUAGCAGAAGGACAUGUGCCUC = f
• UGAUAGGACAGAGGAUAUACGUAUAAUUCCUUCAACAUGAGGAUCACCCAUGUAGAAGGCUGUCCUAUCUAAGUCGGAAACGAC = f
